# System: Mus musculus
# method notes: Toxicity in Swiss mouse assessed as number of squares crossed at 10 mg/kg, ip administered 30 mins proir test measured during last 4 mins of 6 mins incubation by forced-swimming test by locomotory test (reference value: 96.63 +/- 5.32)
# Type: organism-based
# Parameters: dose 10 mg/kg, route intraperitoneal
# condition label: in vivo

| compound | Activity |
| --- | --- |
| Cc1ccc(/C=N/NS(=O)(=O)c2ccc(N3C(=O)C4C5C=CC(C)(O5)C4C3=O)cc2)cc1 (centres undefined) | 92.74 |
| CC12C=CC(O1)C1C(=O)N(c3ccc(S(=O)(=O)N4CCOCC4)cc3)C(=O)C12 (centres undefined) | 101.12 |
| O=C1C2C3C=CC(O3)C2C(=O)N1c1ccc(S(=O)(=O)N/N=C/c2ccc([N+](=O)[O-])cc2)cc1 (centres undefined) | 98.14 |
| O=C1c2cccc3cccc(c23)C(=O)N1Cc1ccc(S(=O)(=O)N2CCOCC2)cc1 | 98.85 |
| CC12C=CC(O1)C1C(=O)N(c3ccc(S(=O)(=O)N4CCCC4)cc3)C(=O)C12 (centres undefined) | 96 |
| COc1ccc(/C=N/NS(=O)(=O)c2ccc(N3C(=O)C4C5C=CC(C)(O5)C4C3=O)cc2)cc1 (centres undefined) | 92.54 |
| O=C1c2cccc3c(Cl)ccc(c23)C(=O)N1CCc1ccc(S(=O)(=O)N2CCCC2)cc1 | 86.74 |
| COc1cc(/C=N/NS(=O)(=O)c2ccc(CN3C(=O)c4cccc5cccc(c45)C3=O)cc2)ccc1O | 96.1 |
| O=C1c2cccc3cccc(c23)C(=O)N1Cc1ccc(S(=O)(=O)N2CCCC2)cc1 | 108.45 |

----------
# Test system: Mus musculus
# method notes: Antidepressant activity in Swiss mouse assessed as immobility duration at 10 mg/kg, ip administered 30 mins prior test measured during last 4 mins of 6 mins observation period by forced-swimming test (reference value: 166 +/- 12.23 to 218.54 +/- 8.11 Secs)
# Type: functional
# condition label: route intraperitoneal
Consider the cut-off 80 s. If the recorded Time is strictly smaller, the label is met; if not, the label is not met.

| molecule | cat |
| --- | --- |
| COc1ccc(/C=N/NS(=O)(=O)c2ccc(N3C(=O)C4C5C=CC(C)(O5)C4C3=O)cc2)cc1 (stereo not given) | not met |
| CC12C=CC(O1)C1C(=O)N(c3ccc(S(=O)(=O)N4CCCC4)cc3)C(=O)C12 (stereo not given) | not met |
| O=C1c2cccc3cccc(c23)C(=O)N1Cc1ccc(S(=O)(=O)N2CCOCC2)cc1 | met |
| O=C1C2C3C=CC(O3)C2C(=O)N1c1ccc(S(=O)(=O)N/N=C/c2ccc([N+](=O)[O-])cc2)cc1 (stereo not given) | not met |

----------
Examples of compounds with documented Activity follow.
# Tested on: Mus musculus
# method notes: Antidepressant activity in Swiss mouse assessed as reduction of immobility duration at 6 to 10 mg/kg, ip measured after 6 mins by tail suspension test relative to control
# Type: functional
# Parameters: scale not given: the % may be the effect or the level left
# condition label: dose mg/kg 6-10; route intraperitoneal
measured quantity: Activity (%)

| compound | study target | measured quantity | readout number |
| --- | --- | --- | --- |
| CC12C=CC(O1)C1C(=O)N(c3ccc(S(=O)(=O)N4CCOCC4)cc3)C(=O)C12 (configuration not stated) | Mus musculus | Activity | 23.69 |
| Cc1ccc(/C=N/NS(=O)(=O)c2ccc(N3C(=O)C4C5C=CC(C)(O5)C4C3=O)cc2)cc1 (configuration not stated) | Mus musculus | Activity | 55.05 |
| O=C1c2cccc3c(Cl)ccc(c23)C(=O)N1Cc1ccc(S(=O)(=O)N2CCOCC2)cc1 | Mus musculus | Activity | 30.61 |
| COc1ccc(/C=N/NS(=O)(=O)c2ccc(N3C(=O)C4C5C=CC(C)(O5)C4C3=O)cc2)cc1 (configuration not stated) | Mus musculus | Activity | 41.64 |
| O=C1c2cccc3cccc(c23)C(=O)N1Cc1ccc(S(=O)(=O)N2CCOCC2)cc1 | Mus musculus | Activity | 57.14 |
| O=C1C2C3C=CC(O3)C2C(=O)N1c1ccc(S(=O)(=O)N/N=C/c2ccc([N+](=O)[O-])cc2)cc1 (configuration not stated) | Mus musculus | Activity | 57.5 |
| O=C1c2cccc3cccc(c23)C(=O)N1Cc1ccc(S(=O)(=O)N2CCCC2)cc1 | Mus musculus | Activity | 45.57 |
